molecular target: DNA-PK phosphorylation at Serine 2056 (Homo sapiens, UniProt P78527); construct: FaDu cells were purchased from ATCC; host or cells: FaDu; assay: Cellular Assay for Inhibition of DNA-PK Phosphorylation at Serine 2056 in FaDu cells (sandwich ELISA, neocarzinostatin); assay type: cell-based; conditions: pSer2056 DNA-PK, Table 3
pIC50: −log10 of the molar value.
property.name: pIC50

| molecule | result |
| --- | --- |
| Cc1cc(C#N)nc(N[C@H]2CC[C@@H](Oc3nc(N4CCOCC4)cc4ncc(OCc5cnc([N+](=O)[O-])n5C)cc34)CC2)n1 | 4.52 to 5.00 |
| CN(C)CCOc1cnc(N[C@H]2CC[C@@H](Oc3nc(N4CCOCC4)cc4ncc(OCc5cnc([N+](=O)[O-])n5C)cc34)CC2)nc1 | 5.00 to 6.00 |
| CN1CCC(Oc2cnc(N[C@H]3CC[C@@H](Oc4nc(N5CCOCC5)cc5ncc(NS(C)(=O)=O)cc45)CC3)nc2)C1 (stereo partly shown) | 6.00 to 7.00 |
| CS(=O)(=O)Nc1cnc2cc(N3CCOCC3)nc(O[C@H]3CC[C@@H](Nc4ncc(OCCN5CCNCC5)cn4)CC3)c2c1 | > 7.00 |
| CC(Oc1cnc2cc(N3CCOCC3)nc(OC3CCC(Nc4ncc(OCCN5CCN(C)CC5)cn4)CC3)c2c1)c1cnn(C)c1[N+](=O)[O-] (stereo not shown) | 5.00 to 6.00 |
| CS(=O)(=O)Nc1cnc2cc(N3CCOCC3)nc(O[C@H]3CC[C@@H](Nc4ncc(OCCN5CCOCC5)cn4)CC3)c2c1 | > 7.00 |
| CS(=O)(=O)Nc1cnc2cc(N3CCOCC3)nc(O[C@H]3CC[C@@H](Nc4ncc(N5CCOCC5)cn4)CC3)c2c1 | > 7.00 |
